Molecular target: Large T antigen (Simian virus 40) (UniProt P03070)
Sequence (P03070 whole entry, looked up): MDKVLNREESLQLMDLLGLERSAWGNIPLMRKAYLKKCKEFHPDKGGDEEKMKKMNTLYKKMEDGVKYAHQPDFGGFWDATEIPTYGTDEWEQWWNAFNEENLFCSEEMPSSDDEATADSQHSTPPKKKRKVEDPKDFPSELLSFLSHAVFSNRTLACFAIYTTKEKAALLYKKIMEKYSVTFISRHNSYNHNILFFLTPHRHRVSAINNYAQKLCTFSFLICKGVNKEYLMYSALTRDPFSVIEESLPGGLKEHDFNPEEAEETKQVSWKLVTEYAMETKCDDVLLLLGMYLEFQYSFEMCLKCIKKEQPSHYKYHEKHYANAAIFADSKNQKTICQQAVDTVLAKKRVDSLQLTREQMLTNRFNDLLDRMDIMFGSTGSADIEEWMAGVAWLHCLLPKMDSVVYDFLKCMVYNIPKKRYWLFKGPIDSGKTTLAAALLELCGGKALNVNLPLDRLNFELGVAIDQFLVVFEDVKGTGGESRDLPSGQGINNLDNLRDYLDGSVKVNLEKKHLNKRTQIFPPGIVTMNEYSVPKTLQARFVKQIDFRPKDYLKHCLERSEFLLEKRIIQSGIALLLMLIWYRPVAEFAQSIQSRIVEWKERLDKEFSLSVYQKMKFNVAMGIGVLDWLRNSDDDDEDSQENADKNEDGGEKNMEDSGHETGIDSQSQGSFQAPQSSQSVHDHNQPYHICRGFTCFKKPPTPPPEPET
Assay: SV40 large T antigen inhibitors, biochemical (AID 1903)
Details: SV40 large T antigen ATPase/helicase inhibition assay; at 20 µM; stronger effect = higher value
Screen size: about 310,000 compounds; about 1,200 (0.39%) were called active. The list is a sample of the results. Entries with a potency or affinity are not part of this list.
For each entry below, report its inhibition value.
One number for each entry, in %.

Consider the reported inhibition for these compounds:
SMILES | MEASURE | RECORDED_MEASUREMENT
Cc1c(NS(=O)(=O)c2cc(C(=O)NCCN(C)C)ccc2Cl)c(=O)n(-c2ccccc2)n1C | inhibition | 10.6
COc1ccc(CCC(=O)Nc2ccc(N3CCOCC3)cc2)cc1 | inhibition | 8.67
COc1ccc(/C=N/NC(=O)c2ccoc2C)cc1OC | inhibition | 6.94
c1ccc(OCCOCCSc2ncccn2)cc1 | inhibition | 3.66

Please turn your attention to the following entry.
q: Short answer please: inhibition, Large T antigen (Simian virus 40) (UniProt P03070), entry NC(=S)NN=C1c2ccccc2-c2ccccc21
a: 7.35

###

Molecular target: Large T antigen (Simian virus 40) (UniProt P03070)
Test: SV40 large T antigen inhibitors, biochemical (AID 1903)
Conditions: SV40 large T antigen ATPase/helicase inhibition assay; at 20 µM; stronger effect = higher value
The campaign covered roughly 310,000 compounds. About 1,200 (0.39%) were called active. Not all results are given here. Measured potencies and affinities stand elsewhere.
Assign class by inhibition: not lower than 8% means TRUE; lower than 8% means FALSE.

The examples below pair each entry with its known result.
MOLECULE | ASSIGNED_LABEL
COc1cccc(NC(=O)Nc2cc(C)ccc2OC)c1 | FALSE
Cn1c(-c2ccccc2[N+](=O)[O-])[n+](C)c2ccccc21 | TRUE
O=C(c1cccs1)N1CCCC(N2CCN(c3ccc(F)cc3)CC2)C1 (stereo not given) | FALSE
O=C(CS(=O)(=O)c1ccc(F)cc1)Nc1nnc(-c2cccs2)o1 | TRUE

Now for a further molecule.
q: Threshold query (inhibition >= 8%) on O=C(N/N=C/c1ccc(OCc2ccc(F)cc2)cc1)c1ccccc1
a: FALSE

###

For each entry below, report its inhibition value.
Target: Large T antigen (Simian virus 40) (UniProt P03070)
Assay: SV40 large T antigen inhibitors, biochemical (AID 1903)
Details: SV40 large T antigen ATPase/helicase inhibition assay; at 20 µM; stronger effect = higher value
The campaign covered roughly 310,000 compounds. About 1,200 (0.39%) were called active. A selection follows. Potency and affinity values are given separately.
Numbers only, in %.

MOLECULE | inhibition [%]
NC(=S)N/N=C/c1coc2c(ccc3ccccc32)c1=O | 10.7
Cc1cc(C)cc(NC(=O)Nn2cnnc2)c1 | 14.3
O=Cc1coc2ccc3ccccc3c2c1=O | 12.7

Quick one: give me inhibition for each item below, same order please.
1. CC1(C)C2CCC(C2)C1(C)NC(=O)CNCc1cccs1 (stereo unspecified)
2. CN1N=C(C(=O)N2CCCC(C(=O)c3cccc(C(F)(F)F)c3)C2)CCC1=O (stereo unspecified)
3. N#CC1=C(N)C2=CCCC[C@H]2[C@H](c2ccccc2)C1(C#N)C#N
4. CCc1ccc(C2CC(c3ccc(Cl)cc3)=NNC2=O)cc1 (stereo unspecified)
5. Clc1ccc(/C=N/N2CCCCC2)cc1
6. CN(C)S(=O)(=O)c1ccc(NC(=O)c2ccccn2)cc1

a:
[5.5, 2.73, 10.5, -1.48, 5.46, -5.42]

Quick one: give me inhibition for each item below, same order please.
1. O=C(O)C1CCCN1C(=O)Nc1ccccc1 (stereo unspecified)
2. CC(NC(=S)Nc1ccc(Cl)cc1)C(c1ccccc1)N1CCOCC1 (stereo unspecified)

a:
1. 4.07
2. 8.17

###

Biological target: Large T antigen (Simian virus 40)
Test: SV40 large T antigen inhibitors, biochemical (AID 1903)
Details: SV40 large T antigen ATPase/helicase inhibition assay; at 20 µM; stronger effect = higher value
Out of some 310,000 compounds screened, about 1,200 (0.39%) were called active. The list is a sample of the results. Entries with a potency or affinity are not part of this list.
MEASURE: inhibition (%)
Numbers only, in %.

Consider the reported inhibition for these molecules:
MOLECULE | TARGET_OR_TEST_SYSTEM | inhibition / %
CCOC(=O)C1=C(C)NC(=O)C(C(N)=O)C12CCCCC2 (stereo unspecified) | Large T antigen (Simian virus 40) | 4.24
O=C(O)/C=C/C(=O)Nc1ccc(-n2nccc2C(F)(F)F)cc1 | Large T antigen (Simian virus 40) | 22.7
O=C(Cc1ccccc1)NCc1cccnc1 | Large T antigen (Simian virus 40) | 5.27
Cc1ccc(/C=C2\SC(=S)N(C3CCS(=O)(=O)C3)C2=O)o1 (stereo unspecified) | Large T antigen (Simian virus 40) | 9.87
O=C1/C(=C/c2ccco2)SC(=S)N1C1CCS(=O)(=O)C1 (stereo unspecified) | Large T antigen (Simian virus 40) | 33.6

Quick one: give me inhibition for each item below, same order please.
1. O=C(CC(Sc1ccc(Br)cc1)C(=O)O)c1ccc(F)cc1 (stereo unspecified)
2. O=C(O)/C(=C\c1ccc(-c2ccccc2[N+](=O)[O-])o1)c1ccccc1
3. Cc1ccc(/C=C2/SC(=S)N(C3CCCCC3)C2=O)o1
4. O=C(c1ccc(-c2ccc([N+](=O)[O-])cc2)o1)N1CCCCC1
5. Cc1c(Cl)cccc1N=C(N)N=C(N)N
6. CCCn1c(SCC(=O)NCc2ccc(C)cc2)n[nH]c1=O

a:
1. 7.72
2. 10.1
3. 31.8
4. 9.33
5. 13.8
6. 7.77

###

Molecular target: Large T antigen (Simian virus 40) (UniProt P03070)
Experiment: SV40 large T antigen inhibitors, biochemical (AID 1903)
Details: SV40 large T antigen ATPase/helicase inhibition assay; at 20 µM; stronger effect = higher value
Among all 310,000 compounds or so, about 1,200 (0.39%) were called active. A selection follows. Potency and affinity values are given separately.
Assign class by inhibition: not lower than 20% means Y; lower than 20% means N.

COMPOUND | ASSIGNED_LABEL
FC(F)Oc1ccc(-n2cc(-c3ccccc3)[n+]3c2CCCCC3)cc1 | N
Cc1ccc2c(nc3s/c(=C\c4ccc(-c5ccccc5C(=O)O)o4)c(=O)n32)c1C | Y
CCN1C(=O)[C@H]2[C@@H](c3ccc(C)cc3)N3C(=O)N(c4ccc(C(F)(F)F)cc4)C(=O)[C@@]3(Cc3ccccc3)[C@H]2C1=O | N
C/C(=N\NC(=O)c1csc2ccccc12)c1ccc(O)cc1 | Y
CCOc1cc(-c2c(C)c(C)nc(N)c2C#N)ccc1O | N
O=C(Cc1ccc([N+](=O)[O-])cc1)c1c(O)cc(O)cc1O | Y

q: Threshold query (inhibition >= 20%) on Cc1cccc(OCC(=O)Nc2ccc(N3CCCC3)cc2)c1C
a: N

q: Threshold query (inhibition >= 20%) on CN(C)c1ccc(/C=N/NC(=O)C[n+]2ccccc2)cc1
a: N

q: Threshold query (inhibition >= 20%) on CCCC(c1nnnn1CS(=O)(=O)c1ccc(C)cc1)N1CCC(C(N)=O)CC1 (stereo unspecified)
a: N

q: Threshold query (inhibition >= 20%) on COc1ccc(Br)cc1S(=O)(=O)n1c([N+](=O)[O-])cnc1C
a: N

q: Threshold query (inhibition >= 20%) on Cc1ccc2nc(/C(C#N)=C/c3ccc(-c4ccccc4C(=O)O)o3)[nH]c2c1
a: Y

###

Molecular target: Large T antigen (Simian virus 40)
Assay: SV40 large T antigen inhibitors, biochemical (AID 1903)
Conditions: SV40 large T antigen ATPase/helicase inhibition assay; at 20 µM; stronger effect = higher value
Hit rate of the full screen: of about 310,000 compounds, about 1,200 (0.39%) were called active. Only a sample is shown. Potency and affinity values are given separately.
Assign class by inhibition: not lower than 10% means true (1); lower than 10% means false (0).

MOLECULE | ASSIGNED_LABEL
CCCn1c(=O)c2ccccc2n2c(SCC(N)=O)nnc12 | false (0)

q: Threshold query (inhibition >= 10%) on CCN(CC)S(=O)(=O)c1ccc(/C=C/C(=O)OCC(=O)Nc2ccc(S(N)(=O)=O)cc2)cc1
a: false (0)

q: Threshold query (inhibition >= 10%) on Cc1ccc(CNc2ccc3c(c2)ncn3C(C)(C)C)cc1
a: true (1)

q: Threshold query (inhibition >= 10%) on CCOc1ccc(NC(=S)N(Cc2ccc(Cl)cc2)Cc2ccco2)cc1
a: false (0)

q: Threshold query (inhibition >= 10%) on CCc1ccc(CNc2ccc3c(c2)ncn3C)cc1
a: true (1)

q: Threshold query (inhibition >= 10%) on COc1ccc(N2CCN(CC(=O)Nc3sccc3C#N)CC2)cc1
a: false (0)

q: Threshold query (inhibition >= 10%) on CC(C)CCN1CCN=C1Nc1ccccc1
a: false (0)
